- experimental_system: D(1A) dopamine receptor (Homo sapiens)
- assay_text: HTS Assay for Allosteric Agonists of the Human D1 Dopamine Receptor: Primary Screen for Antagonists (AID 488983);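 note: calcium flux response to an EC80 dopamine challenge measured with no-wash dye; nearly all actives have a fitted effect of over 65% in size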
- condition_notes: D1 receptor cell assay, antagonist mode, qHTS titration; series mostly up to 41.8 µM
Results filed as inconclusive are left out. Activity calls are given as the source filed them. Calls come from the whole dose curve; as a rule, active = well fitted inhibition curve with a large enough effect; inconclusive = small, poorly fitted or top-dose-only effect, or effect the other way; inactive = flat fitted curve, though single readings scatter.
Hello, when you answer, please use one of the following outcomes: 1.0 = active, 0.0 = inactive

# compound, experimental_system, assigned_class
records = [
    ("O=C(O)CC1CCCc2ccccc2C1O (centres undefined)", "D(1A) dopamine receptor (Homo sapiens)", 0.0),
    ("CN1CCc2ccccc2Cc2[nH]c3ccccc3c2CC1", "D(1A) dopamine receptor (Homo sapiens)", 1.0),
    ("Clc1ccc(N2CCN(Cc3cc4ccccn4n3)CC2)cc1", "D(1A) dopamine receptor (Homo sapiens)", 0.0),
    ("Nc1ncnc2c1c(I)cn2[C@@H]1C[C@H](N)[C@@H](O)[C@H]1O", "D(1A) dopamine receptor (Homo sapiens)", 0.0),
    ("CCCCCCCCc1ccc(-c2ccc(C(=O)O)cc2)cc1", "D(1A) dopamine receptor (Homo sapiens)", 0.0),
]

INPUT: Answer briefly: the call reported for `Oc1ccccc1O` in this assay.
OUTPUT: 0.0

INPUT: Then what about the compound `NC[C@H]1O[C@@H](n2cnc3c(N)ncnc32)[C@H](O)[C@@H]1O` ?
OUTPUT: 0.0

INPUT: Now this one: `CCCC1(C)C(C#N)(C#N)C1(C#N)C#N`
OUTPUT: 0.0

* * *

- System: ATS189
- assay_text: qHTS profiling for inhibitors of Plasmodium falciparum proliferation (AID 504749);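 note: 0% = DMSO vehicle and full inhibition = artemisinin control; nearly all actives have a fitted effect of over 60% in size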
- condition_notes: P. falciparum in erythrocytes, SYBR Green DNA, 72 h; series mostly up to 28.7 µM
Inconclusive results are not listed. Active and inactive are the calls of the source. Calls follow the shape of the dose curve; as a rule, active = well fitted inhibition curve with a large enough effect; inconclusive = small, poorly fitted or top-dose-only effect; inactive = flat fitted curve, though single readings scatter.
outcome_measure: outcome

Sample answers from the record:
# compound, outcome
rows = [
    ("O=C(O)c1cc(O)c(O)c(O)c1", "inactive"),
    ("C#C[C@]1(O)CC[C@H]2[C@@H]3CCc4cc(O)ccc4[C@H]3CC[C@@]21C", "inactive"),
    ("Clc1ccccc1-c1nc(-c2ccncc2)no1", "inactive"),
    ("Cc1ccccc1CNc1ncnc2c1ncn2C1OC(CO)C(O)C1O (stereo unspecified)", "inactive"),
    ("NC(=O)C(c1ccccc1)(c1ccccc1)[C@@H]1CCN(CCc2ccc3c(c2)CCO3)C1", "inactive"),
]

# next compound below
INPUT: What does the data say about its outcome? Entry: `CCCCCCCCCCCCCCCCCC(=O)O`
OUTPUT: inactive

* * *

- assay_text: qHTS for Activators of Parkin Expression: LOPAC Validation Assay (NLuc Reporter) (AID 720572;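 for activation: 0% = DMSO and 100% = positive control compound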)
- condition_notes: Parkin promoter NanoLuc reporter cells, luminescence; series mostly up to 46.1 µM
Records with an inconclusive call do not appear. The source made the active and inactive calls. Calls follow the shape of the dose curve; as a rule, active = well fitted activation curve with a large enough effect; inconclusive = small, poorly fitted or top-dose-only effect; inactive = flat fitted curve, though single readings scatter.
Answer with one of the outcomes given here: TRUE = active, FALSE = inactive

Examples from the recorded data:
# compound, assigned_class
records = [
    ("N=C(N)SCCc1ccc(CCSC(=N)N)cc1", "FALSE"),
    ("OC[C@H]1O[C@@H](n2cnc3c(NC4CCCCC4)ncnc32)[C@H](O)[C@@H]1O", "FALSE"),
    ("COc1cc(C(O)CO)ccc1OS(=O)(=O)O (stereo not drawn)", "FALSE"),
    ("OCC1O[C@H]([S-])[C@H](O)[C@@H](O)[C@@H]1O.[Au+] (stereo partly drawn)", "TRUE"),
    ("C[N+]1(C)C2CC(OC(=O)[C@H](CO)c3ccccc3)CC1C1OC12 (stereo partly drawn)", "FALSE"),
]

INPUT: Call for entry `COc1cc(OC)c(/C=C2/C(=O)Nc3ccccc32)c(OC)c1` :
OUTPUT: FALSE

INPUT: Input CCCCCCCCCCCCCCCC(=O)NCC(COP(=O)([O-])OCC[N+](C)(C)C)OCC (stereo not drawn)
OUTPUT: FALSE

INPUT: // next record CC1CN(S(=O)(=O)c2cccc3cnccc23)CCN1 (stereo not drawn)
OUTPUT: FALSE

INPUT: And CCCCCCCCCCCCCCCCCCNC(=O)OCC(COP(=O)([O-])OCC[n+]1ccsc1)OC (stereo not drawn) ?
OUTPUT: FALSE

INPUT: Input `COC1=C(OC)C(=O)c2ccccc2C1=O`
OUTPUT: FALSE

INPUT: Now this one: `O=C1NC(=O)/C(=C/c2ccc3nccnc3c2)S1`
OUTPUT: FALSE

Origin of values: PubChem BioAssay (NCATS)
